Provenance of the data: ChEMBL document CHEMBL4837254

# SYSTEM: Voltage-gated inwardly rectifying potassium channel KCNH2 (Homo sapiens)
# Sequence (Q12809 whole entry): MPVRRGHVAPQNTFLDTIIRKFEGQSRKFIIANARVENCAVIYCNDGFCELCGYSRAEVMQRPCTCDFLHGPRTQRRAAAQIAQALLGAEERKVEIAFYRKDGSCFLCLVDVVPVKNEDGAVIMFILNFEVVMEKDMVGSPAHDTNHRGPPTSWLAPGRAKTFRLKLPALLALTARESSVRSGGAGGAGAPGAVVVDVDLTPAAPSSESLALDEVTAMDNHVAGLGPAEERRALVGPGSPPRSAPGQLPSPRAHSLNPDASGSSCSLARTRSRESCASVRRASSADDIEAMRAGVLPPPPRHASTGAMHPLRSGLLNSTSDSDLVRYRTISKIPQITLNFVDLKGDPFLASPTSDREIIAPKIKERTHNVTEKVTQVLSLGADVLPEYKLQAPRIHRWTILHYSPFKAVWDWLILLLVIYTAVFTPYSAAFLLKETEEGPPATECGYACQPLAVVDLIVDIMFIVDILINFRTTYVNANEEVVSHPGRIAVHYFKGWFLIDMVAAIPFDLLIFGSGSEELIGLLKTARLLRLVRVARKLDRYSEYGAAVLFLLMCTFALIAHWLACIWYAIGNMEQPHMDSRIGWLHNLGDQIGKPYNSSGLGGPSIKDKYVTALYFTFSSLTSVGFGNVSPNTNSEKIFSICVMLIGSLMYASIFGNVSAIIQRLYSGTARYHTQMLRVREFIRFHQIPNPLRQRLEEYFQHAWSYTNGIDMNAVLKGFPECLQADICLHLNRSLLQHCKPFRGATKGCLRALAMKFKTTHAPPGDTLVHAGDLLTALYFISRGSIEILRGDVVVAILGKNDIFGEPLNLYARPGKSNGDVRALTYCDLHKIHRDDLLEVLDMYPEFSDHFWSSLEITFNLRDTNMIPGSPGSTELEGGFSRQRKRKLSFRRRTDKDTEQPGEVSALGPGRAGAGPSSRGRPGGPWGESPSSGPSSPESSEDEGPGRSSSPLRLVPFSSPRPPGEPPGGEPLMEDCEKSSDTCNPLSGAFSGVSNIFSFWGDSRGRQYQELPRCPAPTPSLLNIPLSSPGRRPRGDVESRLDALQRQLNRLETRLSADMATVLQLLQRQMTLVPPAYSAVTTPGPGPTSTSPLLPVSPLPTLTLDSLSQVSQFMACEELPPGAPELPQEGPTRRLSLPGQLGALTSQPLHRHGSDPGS
pEC50: −log10 of the molar value.
Mark F for pEC50 values under 6, and T for everything at or above.

> print(dat)
                         chemical.structure  class.name
1  C[C@H](CCc1ccc(Cl)c(Cl)c1)NCc1ccc(C(F)(F)F)cc1           F
2  CC(C)(C)Oc1cc(CCC(C)(C)N2Cc3ccc(S(C)(=O)=O)cc3C2)ccc1O           F
3  CC(C)Oc1cc(CCC(C)(C)N2Cc3cccc(F)c3C2)ccc1O           F

Query compound follows.
-- ask Is pEC50 for COc1cc2c(cc1OC)CN([C@H](C)CCc1ccc(Cl)c(Cl)c1)C2 at or above 6?
-- reply T
